Kindly supply the reported IC50 values for the records listed here.
# tested.target: Pim2 kinase (Homo sapiens, UniProt Q9P1W9)
# Sequence (Q9P1W9 whole entry): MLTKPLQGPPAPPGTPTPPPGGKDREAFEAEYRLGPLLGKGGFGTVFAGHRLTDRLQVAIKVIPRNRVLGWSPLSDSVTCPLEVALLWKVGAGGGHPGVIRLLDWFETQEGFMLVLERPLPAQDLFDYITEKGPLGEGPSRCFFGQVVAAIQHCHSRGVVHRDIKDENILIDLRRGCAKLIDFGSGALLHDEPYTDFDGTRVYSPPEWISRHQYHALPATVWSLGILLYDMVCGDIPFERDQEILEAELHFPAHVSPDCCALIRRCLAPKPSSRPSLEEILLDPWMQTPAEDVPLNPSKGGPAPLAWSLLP
# assay.comment: Pim2 ATP depletion assay;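 also: Luciferase-based luminescent readout of ATP remaining after PIM2 phosphorylates a BAD peptide, final 5 nM enzyme, 4 µM ATP, 10 µM peptide, 2.5% DMSO, run to roughly half ATP consumption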
# Assay type: biochemical
# condition.parameters: read-out: IC50 (μM) PIM2

Sample records with IC50:
# compound, reported.result
rows = [
    ("CC(C)NC(=O)c1ccc(F)c(-c2nc(C(=O)Nc3cnccc3N3CCC[C@H](N)C3)c(N)cc2F)c1", "< 1 µM"),
    ("Nc1nccnc1C(=O)Nc1c(F)cccc1N1CCC(N)CC1", "> 25 µM"),
    ("Nc1nccnc1C(=O)Nc1cnccc1N1CCC(N)CC1", "1 to 10 µM"),
    ("Nc1ncc(-c2ccc(N)c(C(=O)Nc3cnccc3N3CCC[C@H](N)C3)n2)c(N)n1", "< 1 µM"),
    ("CCCOc1ccc(F)c(-c2ccc(N)c(C(=O)Nc3cnccc3-c3cc(N)nc(C)n3)n2)c1F", "< 1 µM"),
]

Look up IC50 for the entries below, preserving their order.
1. Nc1ccc(-c2c(F)cccc2F)nc1C(=O)Nc1cnccc1N1CC[C@@H](F)[C@H](N)C1
2. CC1(N)CCCN(c2ccncc2NC(=O)c2nc(-c3ccccc3)ncc2N)C1 (centres unmarked)
3. CCN(CC)S(=O)(=O)c1ccc(C)c(-c2ccc(N)c(C(=O)Nc3cnccc3N3CCC[C@H](N)C3)n2)c1

Response:
["< 1 µM", "< 1 µM", "< 1 µM"]

====

Kindly supply the reported IC50 values for the records listed here.
# tested.target: KDR kinase (Homo sapiens)
# Sequence (P35968 20-1356): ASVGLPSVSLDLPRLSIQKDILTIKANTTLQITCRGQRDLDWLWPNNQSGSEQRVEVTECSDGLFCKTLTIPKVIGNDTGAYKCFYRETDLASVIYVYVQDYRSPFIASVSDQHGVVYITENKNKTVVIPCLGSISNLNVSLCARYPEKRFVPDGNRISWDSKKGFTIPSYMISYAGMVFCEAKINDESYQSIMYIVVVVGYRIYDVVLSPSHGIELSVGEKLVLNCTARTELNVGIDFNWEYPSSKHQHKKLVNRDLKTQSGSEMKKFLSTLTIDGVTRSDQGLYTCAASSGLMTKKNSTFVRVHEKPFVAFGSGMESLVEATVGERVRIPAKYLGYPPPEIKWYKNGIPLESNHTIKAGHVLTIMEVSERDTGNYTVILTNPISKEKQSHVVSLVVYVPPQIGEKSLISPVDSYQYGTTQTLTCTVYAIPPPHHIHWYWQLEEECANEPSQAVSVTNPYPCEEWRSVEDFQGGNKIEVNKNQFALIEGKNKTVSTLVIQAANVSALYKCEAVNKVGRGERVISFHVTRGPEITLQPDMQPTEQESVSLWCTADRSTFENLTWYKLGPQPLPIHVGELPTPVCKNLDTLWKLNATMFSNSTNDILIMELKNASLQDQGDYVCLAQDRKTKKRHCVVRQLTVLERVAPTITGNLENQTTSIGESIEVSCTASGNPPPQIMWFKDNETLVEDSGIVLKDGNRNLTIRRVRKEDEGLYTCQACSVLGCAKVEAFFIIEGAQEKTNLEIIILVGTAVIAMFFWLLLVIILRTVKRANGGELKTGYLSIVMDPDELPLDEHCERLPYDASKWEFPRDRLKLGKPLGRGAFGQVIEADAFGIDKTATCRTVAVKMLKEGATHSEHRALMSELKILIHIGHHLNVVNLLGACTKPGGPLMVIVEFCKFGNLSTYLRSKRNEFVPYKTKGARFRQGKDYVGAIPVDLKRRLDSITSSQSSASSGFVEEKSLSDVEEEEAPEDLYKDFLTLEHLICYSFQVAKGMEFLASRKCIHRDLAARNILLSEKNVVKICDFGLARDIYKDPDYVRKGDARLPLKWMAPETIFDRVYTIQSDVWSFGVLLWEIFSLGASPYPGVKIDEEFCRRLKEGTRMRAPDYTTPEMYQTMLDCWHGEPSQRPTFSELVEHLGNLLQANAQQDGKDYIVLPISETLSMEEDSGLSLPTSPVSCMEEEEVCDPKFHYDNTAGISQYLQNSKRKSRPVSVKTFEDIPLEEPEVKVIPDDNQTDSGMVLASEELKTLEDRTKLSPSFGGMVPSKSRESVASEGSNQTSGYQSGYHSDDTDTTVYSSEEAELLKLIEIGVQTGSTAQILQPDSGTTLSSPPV
# assay.comment: KDR AlphaScreen assay
# condition.parameters: KDR IC50 (μM)

Sample records with IC50:
# molecule, reported.result
records = [
    ("Nc1cnc(-c2c(F)cccc2F)nc1C(=O)Nc1cnccc1N1CCCC(O)(C(F)(F)F)C1 (centres unmarked)", "10 to 25 µM"),
    ("Nc1nccnc1C(=O)Nc1cnccc1C1=CCCCC1", "< 1 µM"),
]

Look up IC50 for the entries below, preserving their order.
1. NC(=O)c1ccc(N2CCCCC2)c(NC(=O)c2nc(Br)cnc2N)c1
2. Nc1nccnc1C(=O)Nc1cc(C(=O)c2ccccc2)ccc1N1CCC(N)CC1
3. Nc1ncc(Br)nc1C(=O)Nc1cnccc1N1CCCC(NCc2ccccc2)C1 (centres unmarked)
4. Nc1cc(-c2ccncc2NC(=O)c2nc(-c3c(F)cccc3F)ccc2N)ncn1
5. NC(=O)c1cccc(-c2cnc(N)c(C(=O)Nc3ccccc3N3CCNCC3)n2)c1
6. Cc1ccc(F)c(-c2ccc(N)c(C(=O)Nc3cnccc3N3CCC[C@H](N)C3)n2)c1

Response:
1 to 10 µM
1 to 10 µM
1 to 10 µM
10 to 25 µM
1 to 10 µM
> 25 µM

====

# tested.target: Pim3 kinase (Homo sapiens)
# assay.comment: Pim3 ATP depletion assay
# Assay type: biochemical
# condition.parameters: read-out: IC50 (μM) PIM3
Kindly supply the reported IC50 values for the records listed here.

Sample records with IC50:
# compound, reported.result
records = [
    ("Nc1ncc(-c2ccccc2C(F)(F)F)nc1C(=O)Nc1[nH]c(=O)ncc1N1CCCC(N)C1 (centres unmarked)", "< 1 µM"),
    ("NCCOc1ccncc1NC(=O)c1nccnc1N", "> 25 µM"),
    ("Nc1ccc(-c2ccc(N)c(C(=O)Nc3cnccc3N3CCC[C@H](N)C3)n2)c(F)n1", "< 1 µM"),
]

Look up IC50 for the entries below, preserving their order.
1. Nc1ncc(Br)nc1C(=O)Nc1[nH]c(=O)ncc1-c1ccccn1
2. NCC1CCCN(c2cnc(=O)[nH]c2NC(=O)c2nc(Cl)c(N)nc2N)C1 (centres unmarked)

Response:
1. < 1 µM
2. < 1 µM
